assay: Apparent permeability from apical to basolateral side in human Caco2 cells by LC-MS analysis; assay type: ADME, cell-based; settings: Caco-2
Square brackets hold non-standard residues; d marks the D form. Peptide text beside a SMILES is read from it. NMeL = CN[C@@H](CC(C)C)C(=O)O
Form field: Papp A→B (one value per entry).
measuredAttribute: Papp A→B

molecule	valueReported
CC(C)C[C@@H]1NC(=O)[C@@H](CC(C)C)NC(=O)[C@H](Cc2ccccc2)NC(=O)CNC(=O)[C@@H](C)NC(=O)[C@H](Cc2ccc(O)cc2)NC1=O	0.72 ×10⁻⁶ cm/s
CC[C@H](C)[C@@H]1NC(=O)[C@H](Cc2c[nH]c3ccccc23)NC(=O)[C@H]2CCCN2C(=O)[C@H]([C@@H](C)CC)NC(=O)[C@H]([C@@H](C)CC)NC(=O)[C@@H](CC(C)C)NC1=O	3.06 ×10⁻⁶ cm/s
CC(C)C[C@@H]1NC(=O)[C@H](Cc2ccccc2)NC(=O)[C@H]([C@@H](C)O)NC(=O)CNC(=O)[C@H](C)NC(=O)[C@H](Cc2ccc(O)cc2)NC1=O (cyclo(AGTFLY))	0.46 ×10⁻⁶ cm/s
CC(C)C[C@@H]1NC(=O)[C@H](Cc2ccc(O)cc2)NC(=O)[C@H]2CCCN2C(=O)[C@H](CC(C)C)NC(=O)[C@H](CC(C)C)N(C)C(=O)[C@@H](CC(C)C)NC1=O (cyclo(L[dL][NMeL]L[dP]Y))	7.83 ×10⁻⁶ cm/s
CC(C)C[C@H]1NC(=O)[C@@H](Cc2ccccc2)NC(=O)CNC(=O)[C@H](C)NC(=O)[C@H](Cc2ccc(O)cc2)NC(=O)[C@@H]2CCCN2C1=O	< 0.14 ×10⁻⁶ cm/s

---

test: Apparent permeability of the compound at 50 uM after 5 hrs by PAMPA method; type: physicochemical
Square brackets hold non-standard residues; d marks the D form. Peptide text beside a SMILES is read from it. NMeY = CN[C@@H](Cc1ccc(O)cc1)C(=O)O; NMeL = CN[C@@H](CC(C)C)C(=O)O; Sar = CNCC(=O)O
Cut-off 0.07 ×10⁻⁶ cm/s on Papp at 5 h, 50 µM: below means satisfied, at or above means not satisfied.

compound	answerLabel
CC(C)C[C@@H]1NC(=O)[C@H](Cc2c[nH]c3ccccc23)NC(=O)[C@H]2CCCN2C(=O)[C@H](CC(C)C)NC(=O)[C@H](CC(C)C)NC(=O)[C@@H](CC(C)C)NC1=O	not satisfied
CC(C)C[C@@H]1NC(=O)[C@@H](Cc2ccccc2)NC(=O)CNC(=O)[C@@H](C)NC(=O)[C@H](Cc2ccc(O)cc2)NC(=O)[C@@H]2CCCN2C1=O	satisfied
CC(C)C[C@@H]1NC(=O)CNC(=O)[C@@H]2CCCN2C(=O)[C@H](Cc2ccc(O)cc2)NC(=O)[C@H](Cc2ccccc2)NC(=O)[C@@H]2CCCN2C1=O (cyclo(FYPGLP))	satisfied
CC(C)C[C@@H]1NC(=O)[C@H](Cc2ccccc2)NC(=O)CN(C)C(=O)[C@H](CC(C)C)N(C)C(=O)[C@H](Cc2ccc(O)cc2)NC(=O)[C@@H]2CCCN2C1=O (cyclo(FLPY[NMeL][Sar]))	not satisfied
CC(C)C[C@@H]1NC(=O)[C@@H](CC(C)C)NC(=O)[C@@H](CC(C)C)NC(=O)[C@@H](CC(C)C)NC(=O)[C@H](Cc2c[nH]c3ccccc23)NC(=O)[C@@H]2CCCN2C1=O	not satisfied
C=C[C@H]1C[N@@]2CC[C@H]1C[C@@H]2[C@@H](O)c1ccnc2ccc(OC)cc12	not satisfied
CC(C)C[C@@H]1NC(=O)[C@@H](CC(C)C)NC(=O)[C@H](CC(C)C)NC(=O)[C@H](Cc2ccc(O)cc2)N(C)C(=O)[C@H]2CCCN2C(=O)[C@H](CC(C)C)NC1=O (cyclo(LL[dP][NMeY]L[dL]))	not satisfied
CC(C)C[C@@H]1NC(=O)[C@H](CC(C)C)N(C)C(=O)[C@@H](CC(C)C)N(C)C(=O)[C@H](Cc2ccc(O)cc2)NC(=O)[C@@H]2CCCN2C(=O)[C@H](CC(C)C)N(C)C1=O	not satisfied
CC(C)C[C@@H]1NC(=O)[C@H](Cc2ccccc2)NC(=O)[C@H]([C@@H](C)O)NC(=O)CNC(=O)[C@H](C)NC(=O)[C@H](Cc2ccc(O)cc2)NC1=O (cyclo(AGTFLY))	satisfied
CC(C)C[C@@H]1NC(=O)[C@@H](CC(C)C)N(C)C(=O)[C@@H](CC(C)C)N(C)C(=O)[C@H](Cc2ccc(O)cc2)NC(=O)[C@@H]2CCCN2C(=O)[C@@H](CC(C)C)N(C)C1=O	not satisfied
CC[C@H](C)[C@@H]1NC(=O)[C@H](Cc2c[nH]c3ccccc23)NC(=O)[C@H]2CCCN2C(=O)[C@H]([C@@H](C)CC)NC(=O)[C@H]([C@@H](C)CC)NC(=O)[C@@H](CC(C)C)NC1=O	not satisfied
CC(C)C[C@@H]1NC(=O)[C@@H](CC(C)C)NC(=O)[C@@H](CC(C)C)NC(=O)[C@H](Cc2c[nH]c3ccccc23)NC(=O)[C@@H]2CCCN2C(=O)[C@@H](CC(C)C)NC1=O	not satisfied
CC(C)C[C@@H]1NC(=O)[C@H](Cc2ccccc2)NC(=O)CNC(=O)[C@@H](C)NC(=O)[C@H](Cc2ccc(O)cc2)NC(=O)[C@@H]2CCCN2C1=O	satisfied
CC(C)C[C@@H]1NC(=O)[C@H](CC(C)C)N(C)C(=O)[C@H](Cc2ccc(O)cc2)NC(=O)[C@@H]2CCCN2C(=O)[C@H]2CCCN2C(=O)[C@@H](CC(C)C)NC1=O	not satisfied
CC(C)C[C@@H]1NC(=O)[C@@H](CC(C)C)N(C)C(=O)[C@@H](CC(C)C)N(C)C(=O)[C@H](Cc2ccc(O)cc2)NC(=O)[C@@H]2CCCN2C(=O)[C@@H](CC(C)C)NC1=O	not satisfied
CC(C)C[C@H]1NC(=O)[C@@H](Cc2ccccc2)NC(=O)CN(C)C(=O)[C@H](C)N(C)C(=O)[C@H](Cc2ccc(O)cc2)NC(=O)[C@@H]2CCCN2C1=O	satisfied
CC(C)C[C@@H]1C(=O)N(C)[C@@H](CC(C)C)C(=O)N(C)[C@@H](CC(C)C)C(=O)N2CCC[C@@H]2C(=O)N[C@@H](Cc2ccc(O)cc2)C(=O)N(C)[C@@H](CC(C)C)C(=O)N1C	not satisfied
CC(C)C[C@@H]1C(=O)N(C)[C@H](CC(C)C)C(=O)N[C@H](CC(C)C)C(=O)N(C)[C@@H](CC(C)C)C(=O)N2CCC[C@H]2C(=O)N[C@@H](Cc2ccc(O)cc2)C(=O)N1C	not satisfied
CC(C)C[C@@H]1NC(=O)[C@H](Cc2ccccc2)NC(=O)[C@H]([C@@H](C)O)NC(=O)CNC(=O)[C@H]([C@@H](C)O)NC(=O)[C@H](Cc2ccc(O)cc2)NC1=O (cyclo(FLYTGT))	satisfied
CC(C)C[C@@H]1NC(=O)[C@H](Cc2ccccc2)NC(=O)CNC(=O)[C@H](C)NC(=O)[C@H](Cc2ccc(O)cc2)NC(=O)[C@H]2CCCN2C1=O	satisfied
